Overview of reported melting point across a group of compounds:

{"compound": "NC(=O)NC(CC(=O)O)c1cccc(Oc2ccccc2)c1 (stereo not given)", "measured-value": "122 to 124 °C"}
{"compound": "CC(CC(=O)O)(CC(=O)O)c1ccccc1", "measured-value": "136 to 138 °C"}
{"compound": "CC(=O)c1c(C)nsc1N", "measured-value": "183 to 185 °C"}
{"compound": "O=C1CC(C(F)F)=NN1", "measured-value": "149 to 151 °C"}
{"compound": "C=CC(=O)NCC1CCCCC1", "measured-value": "47 to 49 °C"}

// query Which melting point is reported for this compound? NCc1ccc(N2CCOC2=O)cc1
// result 94 to 96 °C
